Recorded EC50 values for a group of binders are listed next.
- test system: T1, huNav1.7α(R277Q) + β1-β2-β3 (human)
- T1 construct: polyprotein as encoded; the entry already carries R277Q; also called huNav1.7(R277Q)-beta1-beta2-beta3
- protocol description: binding FACS, CHO FlpIn cells
- Procedure: Binding of the ISVDs to cell-expressed Nav1.7α was detected via murine anti-Flag (Sigma, catalog #F1804). Briefly, cells were resuspended in FACS buffer (PBS, 10% FBS, NaN₃) and transferred to a 96-well V-bottom plate at 1×10^5 cells/well. Purified FLAG3-tagged ISVD was diluted in FACS buffer and added to the cells for 30 minutes at 4° C. […] Prior to the read-out, the samples were resuspended in 1 μg/mL propidium iodide (Sigma, catalog #P4170) to exclude dead cells. […]
Write down the numeric answer in nM and omit the unit.

binder	EC50, nM
F0103387G05 (VHH, entry includes the FLAG-HIS6 tag; also called F0103387G05 (parental)-FLAG-HIS6) VHH: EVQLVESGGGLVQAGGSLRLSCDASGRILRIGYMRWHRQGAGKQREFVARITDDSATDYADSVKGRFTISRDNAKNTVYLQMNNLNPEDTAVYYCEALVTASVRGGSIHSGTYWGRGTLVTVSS	2.2

--- query ---
Ask | Indicate its recorded EC50; the binder in question is F0103262C02 (VHH, entry includes the FLAG-HIS6 tag; also called F0103262C02 (parental)-FLAG-HIS6; F103262CO2) VHH: EVQLVESGGGLVQAGGSLTLSCAASGLPFGLYILGWIRRAPGKERDFVAAISRSGRDTVYANSVKGRFTISRDNAKNMVYLRMDNLRPEDTAAYYCAVDSVPRGTPTITESEYAIWGQGTLVTVSS
Reply | 450
